The measurements presented in this section are drawn from patent US9290451B2.

# MEASURED_TARGET: human CB2 receptors (Homo sapiens (Human), UniProt P34972)
# Sequence (P34972 whole entry): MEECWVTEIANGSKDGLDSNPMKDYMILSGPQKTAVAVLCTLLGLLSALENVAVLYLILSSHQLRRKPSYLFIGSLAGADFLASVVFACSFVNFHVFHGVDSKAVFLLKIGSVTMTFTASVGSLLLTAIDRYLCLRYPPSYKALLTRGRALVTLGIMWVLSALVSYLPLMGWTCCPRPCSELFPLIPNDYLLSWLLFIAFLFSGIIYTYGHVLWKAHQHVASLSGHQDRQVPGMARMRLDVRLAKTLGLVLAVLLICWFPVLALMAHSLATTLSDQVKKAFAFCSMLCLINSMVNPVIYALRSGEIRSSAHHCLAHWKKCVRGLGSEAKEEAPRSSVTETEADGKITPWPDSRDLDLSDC
# ASSAY_PROCEDURE: cAMP assay, CHO cells expressing human CB2 receptors
# Type: cell-based
# TEST_PARAMETERS: CHO cells expressing human CB2, cAMP; read-out: human CB2 EC50
EC50 overview

STRUCTURE_SMILES_STRING | RESULT
CC(C)(NC(=O)c1ccc(C2CCOCC2)c(OCC2CC2)n1)c1ncco1 | 120 nM
COC(=O)C(C)(C)NC(=O)c1ccc(C)c(OCC(F)(F)F)n1 | 77.2 nM
Cc1nc([C@@H](NC(=O)c2cccc(-c3ccc(F)c(Cl)c3)n2)C2CC2)no1 | 24.9 nM
CCC(CC)(NC(=O)c1cccc(OCC(F)(F)C(F)(F)F)n1)C(=O)NC | 962 nM
COc1ccc(C(=O)NC(C)(C)c2ncco2)nc1-c1cccc(Cl)c1 | 217 nM

The measured EC50 associated with Cc1ccc(C(=O)N[C@@H](CC2CC2)c2nccs2)nc1OCC1CC1 reads 33.8 nM

The measured EC50 associated with CCC(CC)(NC(=O)c1ccc(C2CC2)c(OCC2CC2)n1)C(=O)NCCOC reads 51.8 nM

The measured EC50 associated with O=C(NN1CCCCC1)c1cccc(C2CCCC2)n1 reads 129 nM

The measured EC50 associated with O=C(N[C@@H](c1ccccn1)C(F)(F)F)c1ccc(C2CC2)c(OCC2CC2)n1 reads 66.1 nM

The measured EC50 associated with CNC(=O)[C@H](CC(C)C)NC(=O)c1cccc(-c2cccc(F)c2)n1 reads 62 nM

The measured EC50 associated with Cc1csc(C(C)(C)NC(=O)c2ccc(C3CC3)c(OCC3CC3)n2)n1 reads 112 nM
